Biological target: Dual specificity mitogen-activated protein kinase kinase; MEK1/2 (Homo sapiens) (UniProt P36507+Q02750)
Sequence (P36507 whole entry, looked up): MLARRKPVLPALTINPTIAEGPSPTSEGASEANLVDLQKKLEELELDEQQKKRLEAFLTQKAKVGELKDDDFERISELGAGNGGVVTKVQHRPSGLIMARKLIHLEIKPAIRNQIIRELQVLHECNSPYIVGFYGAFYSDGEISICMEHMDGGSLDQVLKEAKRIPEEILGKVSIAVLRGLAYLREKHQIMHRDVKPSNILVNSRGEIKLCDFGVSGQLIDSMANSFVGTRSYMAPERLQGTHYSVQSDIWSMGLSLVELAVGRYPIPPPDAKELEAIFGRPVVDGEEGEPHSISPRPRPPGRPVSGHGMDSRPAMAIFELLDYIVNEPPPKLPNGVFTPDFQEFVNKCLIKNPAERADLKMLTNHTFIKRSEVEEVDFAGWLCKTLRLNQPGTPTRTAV
Sequence (Q02750 whole entry, looked up): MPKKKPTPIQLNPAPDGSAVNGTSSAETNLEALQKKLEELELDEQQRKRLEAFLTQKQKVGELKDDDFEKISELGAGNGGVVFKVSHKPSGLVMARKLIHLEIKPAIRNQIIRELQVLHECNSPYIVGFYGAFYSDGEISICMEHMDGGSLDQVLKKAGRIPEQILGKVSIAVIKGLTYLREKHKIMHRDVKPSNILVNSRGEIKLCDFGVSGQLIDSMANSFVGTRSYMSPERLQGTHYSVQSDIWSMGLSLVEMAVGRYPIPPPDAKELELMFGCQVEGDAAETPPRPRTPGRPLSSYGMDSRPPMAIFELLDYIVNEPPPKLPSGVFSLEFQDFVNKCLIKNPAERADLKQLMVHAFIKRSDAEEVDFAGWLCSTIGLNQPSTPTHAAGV
Assay: Inhibition of MEK phosphorylation in human U937 cells
Format: cell-based
Settings: U-937
Activity calls are given as the source filed them. The rule behind the calls is not given here.
Field 'call' accepts t (active), f (inactive)

Record request — test call for "NCCN1C(=O)S/C(=C\CCc2ccccc2)C1=O"
t

Any idea what this test logged for "CC/C=C1\SC(=O)N(CCN)C1=O" ?
f

// outcome(item) with item = NCCN1C(=O)SC(CCCc2ccccc2)C1=O (centres undefined)
f

Per the records of this test, what outcome belongs to "CC(=O)NCCN1C(=O)S/C(=C\CCc2ccccc2)C1=O" ?
f
